- System: NCI/ADR-RES ovarian
- experiment description: NCI-60 one-dose screen, 48 h (100 = growth as untreated, 0 = no growth, -100 = all killed)
- assay context: 10 µM unless noted
About 83,000 compounds went through this panel and 20% of them were active in at least one assay; those are over-represented in the sample as a whole.
endpoint: growth (%)

compound | endpoint | numeric readout
CCCCCCCCCCCCCCCCCCNC(=O)[C@H]1CSC(c2cccs2)N1 (stereo not given in full) | growth | -45.3
Nc1cc2c(cc1C(=O)c1cccc(F)c1)OCCO2 | growth | 97.9
CC(NNC(C)c1ccccc1)c1ccccc1 (stereo not given) | growth | 105
c1ccc(-c2nnc(-c3ccccn3)s2)nc1 | growth | 83
CCOC(=O)C1CCNC(=O)C1=O (stereo not given) | growth | 105
CCOC(=O)CC(=O)OC | growth | 113
COc1ccc2[nH]c(C(=O)OCc3ccc4c(Cl)cc(Cl)c(O)c4n3)cc2c1 | growth | -58.9
CCN(CC)c1ccc(C(=N)c2ccc(N(CC)CC)cc2)cc1 | growth | -49.9
COc1cc(/C=C/C(=O)c2cccc(-n3cc(-c4cc(OC)c(OC)c(OC)c4)[nH]c3=O)c2)cc(OC)c1OC | growth | 10.5
COc1ccc(NC(=O)c2c(Nc3ccc(OC)cc3OC)n[nH]c2N)c(OC)c1 | growth | 101
O=C(c1ccccc1)c1c(/C=C/c2ccccc2)c2ccccc2[nH]c1=O | growth | 97.5
COc1cc(-c2nn(-c3cccc(NC(=O)c4ccccc4)c3)cc2-c2ccncc2)ccc1Cl | growth | 0.342
Cc1ccc(S(=O)(=O)n2cc(C(=O)C(=O)Nc3ccncc3)c3ccccc32)cc1 | growth | 5.21
CC1=NC2=CC=CC3=NC(C(Cl)(Cl)Cl)=NC(=N1)N23 | growth | 81.6
COc1ccc2c(c1)C(c1cc(OC)c3c(c1)OCO3)C1=C(COC1=O)N2 (stereo not given) | growth | 2.82
O=[N+]([O-])c1ccc(C(c2ccccc2)c2ccccc2)cc1 | growth | 88.8
CCCCCCCC[C@@H](O)CC(=O)N[C@@H](CC(N)=O)C(=O)N[C@@H](CCC(N)=O)C(=O)N[C@@H](CC(=O)c1cc(C)cc(O)c1C(=O)c1c(O)cccc1O)CC(C)C | growth | 93.7
Fc1ccc(-c2nc(-c3nc4ncccc4[nH]3)cc3c2[nH]c2ccccc23)cc1F | growth | 61.4
COc1ccc(-c2nc(/C=C3/C(=O)Nc4ccc(F)cc43)c3ccccn23)cc1 | growth | 111
Cc1nc2ncccc2nc1Nc1ccc(S(=O)(=O)Nc2ccccn2)cc1 | growth | 98.2
O=C1NN(C(=O)c2ccc(Cl)cc2)C(c2ccccc2)=N/C1=C\c1cn(-c2ccccc2)nc1-c1ccccc1 | growth | 92.9
CCCN=C1NC(=O)/C(=C/c2nc(-c3ccc(OC)cc3)n3ccccc23)S1 | growth | 83.6
O=c1ccn(C2CC(O)C(O)C(CO)O2)c(=O)[nH]1 (stereo not given) | growth | 113
COc1ccc(-c2ccc(-c3ccc(C(=N)N)s3)s2)cc1Cl | growth | 27.8
O=S(=O)(NCCNc1nccc(-c2c(-c3cccc(O)c3)nc3sccn23)n1)c1ccc(F)cc1 | growth | 97.9
COc1cccc(CC(C)=C(c2ccc(OCCN3CCCCC3)cc2)c2ccc(OCCN3CCCCC3)cc2)c1 | growth | -13.3
NC1N=C(SCC(=O)N2CCN(c3cc4c(cc3F)c(=O)c(C(=O)O)cn4C3CC3)CC2)NC(=O)/C1=C/c1ccc(Cl)cc1 (stereo not given) | growth | 105
O=S(=O)(NCCCNc1nccc(-n2ccc3cccnc32)n1)c1cccc(C(F)(F)F)c1 | growth | 101
CCCC(=O)Oc1ccc(/C(=C(\C)c2ccccc2)c2ccc(OCCN(CC)CC)cc2)cc1 | growth | 86.7
O=C1NC(=C(Cl)Cl)/C(=N/S(=O)(=O)N2CCC(C3(C(F)(F)F)N=N3)CC2)N1 | growth | 106

Data origin, for the record: PubChem BioAssay (NCI)
